target: human GPR120 (Homo sapiens); construct: host or cells: CHO-K1; test: GPR120 β-Arrestin Recruitment Assay (PathHunter, CHO-K1 cells); assay type: cell-based; conditions: CHO-K1; @ 10 uM; read-out: percent activation at a single concentration (printed in the β-Arr pEC50 column)
Sequence (Q5NUL3 1-377 isoform Q5NUL3-1): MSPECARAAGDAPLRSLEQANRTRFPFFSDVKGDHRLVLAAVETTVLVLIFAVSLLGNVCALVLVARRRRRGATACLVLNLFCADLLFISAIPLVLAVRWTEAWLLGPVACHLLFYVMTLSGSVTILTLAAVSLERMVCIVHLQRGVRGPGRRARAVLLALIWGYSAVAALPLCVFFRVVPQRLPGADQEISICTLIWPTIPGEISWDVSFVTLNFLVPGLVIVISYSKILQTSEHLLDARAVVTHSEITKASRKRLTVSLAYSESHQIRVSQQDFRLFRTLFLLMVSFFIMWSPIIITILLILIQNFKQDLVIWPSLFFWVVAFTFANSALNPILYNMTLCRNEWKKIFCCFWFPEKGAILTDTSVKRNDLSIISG
Sequence (P32121 whole entry partner): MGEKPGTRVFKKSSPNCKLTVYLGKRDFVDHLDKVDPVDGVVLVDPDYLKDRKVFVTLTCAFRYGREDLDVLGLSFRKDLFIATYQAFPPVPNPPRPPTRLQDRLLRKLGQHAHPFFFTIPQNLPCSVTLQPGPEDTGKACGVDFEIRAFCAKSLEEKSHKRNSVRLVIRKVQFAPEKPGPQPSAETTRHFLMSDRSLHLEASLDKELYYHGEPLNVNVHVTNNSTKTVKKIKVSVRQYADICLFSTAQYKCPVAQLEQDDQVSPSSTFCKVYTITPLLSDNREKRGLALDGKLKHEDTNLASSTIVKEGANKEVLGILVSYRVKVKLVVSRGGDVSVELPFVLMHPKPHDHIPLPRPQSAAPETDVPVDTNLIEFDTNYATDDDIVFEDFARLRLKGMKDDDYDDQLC
propertyLabel: activation at 10 µM (%)

Solved entries:
CC(=O)Nc1cccc(Oc2nccc(N3Cc4ccccc4S3(=O)=O)n2)c1 [Compound 24] : 1
Cc1ncccc1Oc1nccc(N2Cc3ccccc3S2(=O)=O)n1 [Compound 17] : 4
c1cncc(Oc2nccc(N3Cc4ccccc4C3)n2)c1 [Compound 13] : 9
CC1(C)c2ccccc2CN1c1ccnc(Oc2cccnc2)n1 [Compound 2] : 18
O=S1(=O)c2ccccc2CN1c1ccnc(Oc2ccnc3ccccc23)n1 [Compound 27] : 9

a. O=S1(=O)c2ccccc2CN1c1ccnc(-n2cnc3ccccc32)n1 [Compound 31]
b. O=S1(=O)c2ccccc2CN1c1ccnc(Oc2cncnc2)n1 [Compound 25]
Enquiry: Thinking about recorded activation at 10 µM values, which is higher, a or b ? Respond with the label that goes with your answer.
Return: b

P. O=S1(=O)c2ccccc2CN1c1ccnc(-n2ccc3ccncc32)n1 [Compound 30]
Q. O=S1(=O)c2ccccc2CN1c1ccnc(OCc2cccnc2)n1 [Compound 71]
R. c1cncc(Oc2ccnc(N3Cc4ccccc4C3)n2)c1 [Compound 14]
Enquiry: Ordering criterion: activation at 10 µM; begin with the maximum. The labels, placed in the requested order, form the answer.
Return: P, R, Q
